# ASSAY METHOD TEXT: Pharmacokinetics of MB-905 in three pre-formulations in mice
# Assay type: in vivo
# PARTICULARS: CD1, mouse, plasma, po, 30 mg/kg, 5% Tween80 + 95% PEG400, 30 mg/kg (p.o.)
ENDPOINT: Tmax (min)
Answers are plain numbers, in min.

Given the molecule c1coc(CNc2ncnc3[nH]cnc23)c1 [MB-905, kinetin] , write its reported Tmax.
15

====

# ASSAY METHOD TEXT: Pharmacokinetics of MB-905 in three pre-formulations in mice
# Type: in vivo
# PARTICULARS: mouse, plasma, po, 3 mg/kg, 5% Carboxymethylcellulose, 3 mg/kg (v.o.)
ENDPOINT: AUC (ng·h/mL)
Give bare numbers, in ng·h/mL.

Please list AUC recorded for the compound c1coc(CNc2ncnc3[nH]cnc23)c1
107

====

# ASSAY METHOD TEXT: Cytotoxicity assay (XTT) in Calu-3 cells
# Type: cell-based, human
# PARTICULARS: human, Table 6; Calu-3, daily treatment
Please go through the items and note down their CC50 at 3 days.
Answers are plain numbers, in µM.

| COMPOUND | UNIT SPEC | CC50 at 3 days |
| --- | --- | --- |
| OC[C@H]1O[C@@H](n2cnc3c(NCc4ccco4)ncnc32)[C@H](O)[C@@H]1O [MB-801, kinetin riboside] | µM | 530 |
| CC(C)OC(=O)[C@H](C)NP(=O)(OC[C@H]1O[C@@H](n2cnc3c(NCc4ccco4)ncnc32)[C@H](O)[C@@H]1O)Oc1ccccc1 (stereo partly shown) [MB-711, kinetin riboside monophosphoramidate] | µM | 580 |
| CCC(CC)COC(=O)[C@H](C)N[P@](=O)(OC[C@H]1O[C@@](C#N)(c2ccc3c(N)ncnn23)[C@H](O)[C@@H]1O)Oc1ccccc1 [Remdesivir, reference compound] | µM | 330 |

Query CC50 at 3 days for CC(C)C(=O)OC[C@H]1O[C@@H](n2ccc(NO)nc2=O)[C@H](O)[C@@H]1O [MK-4482, N-4-hydroxycytidine-5′-isopropyl ester, reference compound]
58

====

# ASSAY METHOD TEXT: Pharmacokinetics of MB-905 in three pre-formulations in mice
# Assay type: in vivo
# PARTICULARS: CD1, mouse, plasma, po, 30 mg/kg, 5% Carboxymethylcellulose, 30 mg/kg (p.o.)
# Source text: FIG. 21. Pharmacokinetics of MB-905 in three pre-formulations in mice. Thus, the pre-formulation was used for most subsequent in vivo studies.
ENDPOINT: Tmax (min)
Give bare numbers, in min.

Give a short answer stating reported Tmax for c1coc(CNc2ncnc3[nH]cnc23)c1 .
15

====

Please provide measured CC50 at 3 days for the entries that follow.
# ASSAY METHOD TEXT: Cytotoxicity assay (XTT) in Vero cells
# Type: cell-based
# PARTICULARS: African green monkey
Numbers only, in µM.

| COMPOUND | OBSERVED RESULT |
| --- | --- |
| CCC(CC)COC(=O)[C@H](C)N[P@](=O)(OC[C@H]1O[C@@](C#N)(c2ccc3c(N)ncnn23)[C@H](O)[C@@H]1O)Oc1ccccc1 [Remdesivir, reference compound] | 530 |

Let's switch to this compound now.
Let me know recorded CC50 at 3 days for C/C(=C\CNc1ncnc2c1ncn2[C@@H]1O[C@H](CO)[C@@H](O)[C@H]1O)CO [MB-804, zeatin riboside] , thanks.
636

====

# ASSAY METHOD TEXT: Pharmacokinetics of MB-905 in three pre-formulations in mice
# Type: in vivo
# PARTICULARS: CD1, mouse, plasma, po, 300 mg/kg, 5% Tween80 + 95% PEG400, 300 mg/kg (p.o.)
ENDPOINT: Tmax
State the value with its unit after it.

Read off the recorded Tmax for c1coc(CNc2ncnc3[nH]cnc23)c1 [MB-905, kinetin]
15 min

====

# ASSAY METHOD TEXT: Toxicokinetics in the 28-day study
# Assay type: in vivo, mice
# PARTICULARS: male, CD1, mouse, in vivo, po, 250 mg/kg, male mice; 250 mg/kg; Day 28
ENDPOINT: Tmax (min)
Numbers only, in min.

Return Tmax (reported value) for this molecule: c1coc(CNc2ncnc3[nH]cnc23)c1 [MB-905, kinetin]
15

====

# ASSAY METHOD TEXT: Toxicokinetics in the 28-day study
# Type: in vivo, mice
# PARTICULARS: male, CD1, mouse, in vivo, po, 250 mg/kg, male mice; 250 mg/kg; Day 0
ENDPOINT: Cmax (ng/mL)
Numbers only, in ng/mL.

Specify measured Cmax for c1coc(CNc2ncnc3[nH]cnc23)c1 [MB-905, kinetin] .
793

====

# ASSAY METHOD TEXT: Pharmacokinetics of MB-905 in three pre-formulations in mice
# Type: in vivo
# PARTICULARS: mouse, plasma, po, 550 mg/kg, 5% ethanol, 30% Propylene Glycol, 45% PEG 400, 20% water, 550 mg/kg (p.o.)
ENDPOINT: Tmax (h)
Give bare numbers, in h.

Supply measured Tmax of c1coc(CNc2ncnc3[nH]cnc23)c1 [MB-905, kinetin] in your reply.
1

====

# Tested on: Calu-3 cells
# ASSAY METHOD TEXT: Cytotoxicity assay (XTT) in Calu-3 cells
# Type: cell-based, human
# PARTICULARS: Calu-3, daily treatment
Please provide measured CC50 for the entries that follow.
One number for each entry, in µM.

| MOLECULE | OBSERVED RESULT |
| --- | --- |
| OC[C@H]1O[C@@H](n2cnc3c(NCc4ccco4)ncnc32)[C@H](O)[C@@H]1O [MB-801, kinetin riboside] | 530 |

Then there is this molecule:
Specify reported CC50 for the molecule shown: CC(C)C(=O)OC[C@H]1O[C@@H](n2ccc(NO)nc2=O)[C@H](O)[C@@H]1O [MK-4482, N-4-hydroxycytidine-5′-isopropyl ester, reference compound]
58

====

# ASSAY METHOD TEXT: Pharmacokinetics of MB-905 in three pre-formulations in mice
# Assay type: in vivo
# PARTICULARS: mouse, plasma, po, 30 mg/kg, 5% ethanol, 30% Propylene Glycol, 45% PEG 400, 20% water, 30 mg/kg (p.o.)
ENDPOINT: AUC (ng·h/mL)
One number for each entry, in ng·h/mL.

Answer with the recorded AUC for the compound listed here: c1coc(CNc2ncnc3[nH]cnc23)c1
763

====

# ASSAY METHOD TEXT: Toxicokinetics in the 28-day study
# Assay type: in vivo, mice
# PARTICULARS: female, CD1, mouse, in vivo, po, 10 mg/kg, female mice; 10 mg/kg; Day 0
ENDPOINT: Tmax
Value and unit, in that order.

Return Tmax (reported value) for this compound: c1coc(CNc2ncnc3[nH]cnc23)c1
15 min

====

# ASSAY METHOD TEXT: Pharmacokinetics of MB-905 in three pre-formulations in mice
# Type: in vivo
# PARTICULARS: mouse, plasma, po, 550 mg/kg, 5% ethanol, 30% Propylene Glycol, 45% PEG 400, 20% water, 550 mg/kg (p.o.)
ENDPOINT: AUC
Give me the value, and tack the unit on after it.

Hello, please tell me recorded AUC for this one: c1coc(CNc2ncnc3[nH]cnc23)c1
11.6 µg·h/mL

====

# ASSAY METHOD TEXT: Toxicokinetics in the 28-day study
# Assay type: in vivo, mice
# PARTICULARS: female, CD1, mouse, in vivo, po, 250 mg/kg, female mice; 250 mg/kg; Day 0
ENDPOINT: half-life (h)
Give bare numbers, in h.

Report measured half-life; entry is c1coc(CNc2ncnc3[nH]cnc23)c1 [MB-905, kinetin]
3.08

====

# ASSAY METHOD TEXT: Pharmacokinetics of MB-905 in three pre-formulations in mice
# Assay type: in vivo
# PARTICULARS: CD1, mouse, plasma, po, 3 mg/kg, 5% ethanol, 30% Propylene Glycol, 45% PEG 400, 20% water, 3 mg/kg (v.o.), read-out: Cmax
ENDPOINT: Cmax (ng/mL)
Answers are plain numbers, in ng/mL.

Consider the compound c1coc(CNc2ncnc3[nH]cnc23)c1 [MB-905, kinetin] and give its recorded Cmax.
64

====

# ASSAY METHOD TEXT: Pharmacokinetics of MB-905 in plasma of the rat
# Type: in vivo
# PARTICULARS: both sexes, Sprague Dawley, rat, plasma, po, 30 mg/kg, 30 mg/kg (v.o.)
ENDPOINT: AUC(0-t) (ng·h/mL)
Give bare numbers, in ng·h/mL.

Return value of AUC(0-t) for input c1coc(CNc2ncnc3[nH]cnc23)c1 , no commentary.
1500

====

# ASSAY METHOD TEXT: Cytotoxicity assay (XTT) in Calu-3 cells
# Type: cell-based, human
# PARTICULARS: human, Table 6; Calu-3, single treatment
ENDPOINT: CC50 at 3 days (µM)
One number for each entry, in µM.

| MOLECULE | ENDPOINT | OBSERVED RESULT |
| --- | --- | --- |
| CCC(CC)COC(=O)[C@H](C)N[P@](=O)(OC[C@H]1O[C@@](C#N)(c2ccc3c(N)ncnn23)[C@H](O)[C@@H]1O)Oc1ccccc1 [Remdesivir, reference compound] | CC50 at 3 days | 350 |
| CC(C)C(=O)OC[C@H]1O[C@@H](n2ccc(NO)nc2=O)[C@H](O)[C@@H]1O [MK-4482, N-4-hydroxycytidine-5′-isopropyl ester, reference compound] | CC50 at 3 days | 58 |
| OC[C@H]1O[C@@H](n2cnc3c(NCc4ccco4)ncnc32)[C@H](O)[C@@H]1O [MB-801, kinetin riboside] | CC50 at 3 days | 550 |

With those in mind, consider the next molecule.
Identify CC50 at 3 days associated with the molecule CC(C)OC(=O)[C@H](C)NP(=O)(OC[C@H]1O[C@@H](n2cnc3c(NCc4ccco4)ncnc32)[C@H](O)[C@@H]1O)Oc1ccccc1 (stereo partly shown) [MB-711, kinetin riboside monophosphoramidate]
562
